For each record, write down the corresponding polymerase ribozyme fitness (log ratio).
B1: TPR t1 (parent)
chain: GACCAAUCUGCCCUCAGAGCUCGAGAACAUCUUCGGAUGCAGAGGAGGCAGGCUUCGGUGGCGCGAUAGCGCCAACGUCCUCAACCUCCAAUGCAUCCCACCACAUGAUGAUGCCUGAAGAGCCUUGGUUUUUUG

Variants of: B1
Test: polymerase ribozyme fitness, log enrichment relative to wild type (log ratio); higher = more active; in vitro selection for triplet polymerase activity
One number for each entry.

Consider the reported polymerase ribozyme fitness (log ratio) for these variants:
- CHANGES: "C11A C88A"
  RESULT NUMBER: -2.15
- CHANGES: "C4G G110A"
  RESULT NUMBER: -2.16
- CHANGES: "C12G G61U G120U"
  RESULT NUMBER: 2.2
- CHANGES: "G19A C56U"
  RESULT NUMBER: -2.34
- CHANGES: "C11G A18G C97U G110A"
  RESULT NUMBER: -3.11

Provide polymerase ribozyme fitness (log ratio) values for the following items, in order.
1. C13U A18G A46C U96C A100C C123G
2. G44U A46U G117U
3. A103U C124G U131C
4. G19A C85U

Return:
1: -4.57; 2: -4.65; 3: -2.6; 4: -3.47
